Procedure summary: Functional metabolic assay to measure dose dependent changes in cell viability from drug treatment in Vero E6/TMPRSS2 cells (cotreated with P-gp inhibitor, Elacridar). […] Cytotoxicity is reported via measuring absorbance and analysis of MTT/MTS assays in uninfected cells. The assay has been performed by Icahn School of Medicine at Mount Sinai.
Format: toxicity, cell-based, VeroE6/TMPRSS2
Experimental parameters: chlorocebus sabaeus, Vero E6/TMPRSS2 cells, with Elacridar (P-gp inhibitor, concentration not stated); p-gp concentration 2 uM
Experimental readout: CC50

- Smiles input: "O=C(O)COc1cccc(NC(=O)c2cc(Cl)cc(NC(=O)OCc3ccccc3)c2)c1"
  Experimental readout: "CC50"
  Result: "> 50 µM"

# per-item lookup of CC50; items listed below
1. Cc1ccc2cc(Cl)cc(C(=O)Nc3ccc4c(c3)CNC4)c2n1
2. CC(C)NC(=O)[C@H](Nc1ccc2c(c1)CNC2)c1cc(Cl)cc2[nH]ncc12
3. NCc1cccc(C(=O)Nc2cc(Cl)cc(NC(=O)OCc3ccccc3)c2)c1

1. 31.3 µM
2. > 50 µM
3. > 10 µM

====

Provide the recorded CC50 for the entries that follow.
Procedure summary: Functional assay to measure dose dependent changes in cell viability from drug treatment in Vero E6 miRFP670 cells (cotreated with P-gp inhibitor, CP100356) that are infected with Dengue virus type 2 New Guinea C. […] Cytotoxicity is reported via via analysis of DAPI count using high-content imager. The assay has been performed by KU Leuven.
Type: toxicity, cell-based, Vero C1008
Experimental parameters: chlorocebus sabaeus, vero c1008; p-gp concentration 500 nM
Give bare numbers, in µM.

- Smiles input: "CC(C)CNC(=O)c1cc(Cl)c(F)cc1NS(=O)(=O)c1ccc(Oc2ccccc2Cl)cc1"
  Display unit: "µM"
  Numeric value: 5.35

# per-item lookup of CC50; items listed below
1. Cc1c(C(=O)Nc2cc(-c3cccnc3)ccn2)cc(C2CC2)n1C
2. NCCc1ccc([C@H]2C[C@@H]2c2cc(Cl)cc(NC(=O)OCc3ccccc3)c2)cc1

11.9
4.57

====

Procedure summary: Functional CPE-based assay to measure dose dependent changes in cell viability from drug treatment in Vero E6 miRFP670 cells (cotreated with P-gp inhibitor, CP100356). Cells are treated with antiviral candidates that have been serially diluted. Cytotoxicity is reported via analysis of MTS assays in uninfected cells. The assay has been performed by KU Leuven.
Type: toxicity, Vero C1008
Experimental parameters: chlorocebus sabaeus, Vero E6 miRFP670 cells, with CP100356 (P-gp inhibitor, concentration not stated); p-gp concentration 500 nM
Provide the recorded CC50 for the entries that follow.

Example compounds with recorded CC50:
- Smiles input: "CC(=O)Nc1cc(Br)cc(C(=O)Nc2ccc3c(c2)CNC3)c1"
  Result: "> 50 µM"
- Smiles input: "C[C@H]1NCc2cc(NC(=O)c3cc(F)cc4[nH]ncc34)ccc21"
  Result: "> 50 µM"

Now for a further compound.
Identify measured CC50 associated with O=C1Cc2c(cccc2C(=O)Nc2ccc3c(c2)CCNCC3)N1
> 50 µM

====

Provide the recorded CC10 for the entries that follow.
Procedure summary: Functional metabolic assay to measure dose dependent changes in cell viability from drug treatment in Vero E6/TMPRSS2 cells (cotreated with P-gp inhibitor, Elacridar). […] Cytotoxicity is reported via measuring absorbance and analysis of MTT/MTS assays in uninfected cells. The assay has been performed by Icahn School of Medicine at Mount Sinai.
Format: toxicity, cell-based, VeroE6/TMPRSS2
Experimental parameters: chlorocebus sabaeus, veroe6/tmprss2; p-gp concentration 2 uM

Example molecules with recorded CC10:
- Smiles input: "COc1ccc(CCNc2nc(N3CCc4cc(OC)c(OC)cc4C3)c3cc(OC)c(OC)cc3n2)cc1OC"
  Result: "< 0.005 µM"
- Smiles input: "CC[C@H](Cc1nnn[nH]1)c1ccc(NC(=O)c2cc(Cl)cc(-n3cccc3)c2)cc1"
  Result: "> 50 µM"
- Smiles input: "Clc1ccc2[nH]cc(Cc3ccc(-c4nn[nH]n4)cc3)c2c1"
  Result: "> 50 µM"

# per-item lookup of CC10; items listed below
1. Cc1ccc(-c2nnn[nH]2)cc1NC(=O)c1cc(Cl)cc(NC(=O)OCc2ccccc2)c1
2. CNC(=O)[C@H](Nc1ccc2c(c1)CNC2)c1cc(Cl)cc(C2CC2)c1
3. O=C(NC[C@H]1CCCO1)[C@H](Nc1ccc2c(c1)CNC2)c1cc(Cl)cc(C2CC2)c1

1: > 50 µM; 2: > 50 µM; 3: > 50 µM

====

Procedure summary: Functional CPE-based assay to measure dose dependent changes in cell viability from drug treatment in Vero E6 miRFP670 cells. Cells are treated with antiviral candidates that have been serially diluted. Cytotoxicity is reported via analysis of MTS assays in uninfected cells. The assay has been performed by KU Leuven.
Assay type: toxicity, Vero C1008
Experimental parameters: chlorocebus sabaeus, Vero E6 miRFP670 cells
Experimental readout: CC50 (µM)
One number for each entry, in µM.

- Smiles input: "Cc1ccc(NC(=O)c2cc(Cl)cc(NC(=O)OCc3ccccc3)c2)cc1CN"
  Display unit: "µM"
  CC50: 5.18

Now for a further molecule.
Identify measured CC50 associated with Cc1[nH]c2ccccc2c1CN1CCC(c2c[nH]c3ncccc23)CC1
25.2

====

Procedure summary: Functional metabolic assay to measure dose dependent changes in cell viability from drug treatment in Vero E6/TMPRSS2 cells (cotreated with P-gp inhibitor, Elacridar). […] Cytotoxicity is reported via measuring absorbance and analysis of MTT/MTS assays in uninfected cells. The assay has been performed by Icahn School of Medicine at Mount Sinai.
Format: toxicity, cell-based, VeroE6/TMPRSS2
Experimental parameters: chlorocebus sabaeus, veroe6/tmprss2; p-gp concentration 2 uM
Provide the recorded CC10 for the entries that follow.

Example compounds with recorded CC10:
- Smiles input: "COCCNC(=O)[C@H](Nc1ccc2c(c1)CNC2)c1cc(Cl)cc(C2CC2)c1"
  CC10: "> 50 µM"
- Smiles input: "O=C(Nc1cnc2c(c1)CNCC2)c1cc(Cl)cc2[nH]ncc12"
  CC10: "> 50 µM"
- Smiles input: "CCOC(=O)Nc1cc(Cl)cc(C(=O)Nc2cccc(CN)c2)c1"
  CC10: "> 50 µM"
- Smiles input: "NCc1cccc(NC(=O)c2cc(Cl)cc(-n3cccc3)c2)c1"
  CC10: "> 50 µM"
- Smiles input: "COC(=O)c1cc(NC(=O)c2cc(Cl)cc(NC(=O)OCc3ccccc3)c2)cc(-c2nnn[nH]2)c1"
  CC10: "> 50 µM"
- Smiles input: "NCc1cccc(CCc2cc(Cl)cc(NC(=O)OCc3ccccc3)c2)c1"
  CC10: "2.058 µM"
- Smiles input: "CCCC[C@H](NC(C)=O)C(=O)N[C@H](C(=O)NCc1ccc(C(N)=O)cc1)c1ccc(OCc2ccccc2)cc1"
  CC10: "> 50 µM"
- Smiles input: "C[C@@H](N)c1cccc(NC(=O)[C@H]2[C@H]3CCCCC[C@H]3[C@H]2NC(=O)OCc2ccccc2)c1"
  CC10: "0.044 µM"

# per-item lookup of CC10; items listed below
1. CC(=O)Nc1cc(Cl)cc(C(=O)Nc2cccc(CN)c2)c1
2. Cn1cc(CCc2nc3c(C(=O)Nc4ccc5c(c4)CNC5)cc(Cl)cc3[nH]2)cn1

1. > 50 µM
2. 17.311 µM

# per-item lookup of CC10; items listed below
1. O=C(Nc1ccc2c(c1)CNC2)c1cc(Cl)cc2[nH]ncc12
2. N#C[C@H](Nc1ccc2c(c1)CNC2)c1cc(Cl)cc2[nH]ncc12
3. O=C(Nc1ccc2c(c1)CNC2)c1cccc2[nH]ncc12
4. N#Cc1cc(C(=O)Nc2ccc3c(c2)CNC3)cc(C(F)(F)F)c1
5. O=C(Nc1cc(Cl)cc(C(=O)Nc2cc(Br)cc(-c3nnn[nH]3)c2)c1)OCc1ccccc1

> 50 µM
> 50 µM
> 50 µM
> 50 µM
> 50 µM

# per-item lookup of CC10; items listed below
1. CCc1cc(Cl)cc(C(=O)Nc2ccc3c(c2)CNC3)c1
2. O=C(Nc1ccc2c(c1)CNC2)c1cc(C(F)(F)F)cc2[nH]ccc12
3. O=C(Nc1cc(Cl)cc(C(=O)Nc2ccc3c(c2)CNCCO3)c1)OCc1ccccc1
4. O=C(Nc1cc(Cl)cc(C(=O)Nc2cccc(-c3nnn[nH]3)c2)c1)OCc1ccccc1
5. CC(C)OC(=O)Nc1cc(Cl)cc(C(=O)Nc2cccc(CN)c2)c1

1: 10.908 µM; 2: > 50 µM; 3: < 0.023 µM; 4: 0.117 µM; 5: < 0.023 µM

====

Procedure summary: Functional metabolic assay to measure dose dependent changes in cell viability from drug treatment in Vero E6/TMPRSS2 cells. Cells are treated with antiviral candidates that have been serially diluted. Cytotoxicity is reported via measuring absorbance and analysis of MTT/MTS assays in uninfected cells. The assay has been performed by Icahn School of Medicine at Mount Sinai.
Format: toxicity, cell-based, VeroE6/TMPRSS2
Experimental parameters: chlorocebus sabaeus, Vero E6/TMPRSS2 cells
Experimental readout: CC50

- Smiles input: "CC[C@@H](Cc1nnn[nH]1)c1ccc(NC(=O)c2cc(Cl)cc(NC(=O)OCc3ccccc3)c2)cc1"
  Result: "> 50 µM"

# per-item lookup of CC50; items listed below
1. O=C(Nc1cc(Cl)cc(C(=O)Nc2cccc(-c3nnn[nH]3)c2)c1)OCc1ccccc1
2. O=C(O)c1cc(Cl)ccc1NS(=O)(=O)c1ccc(Oc2ccccc2Cl)cc1
3. O=C(Nc1cc(Cl)cc(C(=O)Nc2cccc(-n3nn[nH]c3=O)c2)c1)OCc1ccccc1
4. NCc1ccc(-c2ncc(OCC3CCNCC3)nc2-c2ccc(-c3ccoc3)cc2)cc1
5. c1cc(C2CCN(Cc3c[nH]c4ccccc34)CC2)c2ccncc2c1
6. CC(C)CNC(=O)c1cc(Cl)c(F)cc1NS(=O)(=O)c1ccc(Oc2ccccc2Cl)cc1

["> 50 µM", "> 50 µM", "> 50 µM", "> 50 µM", "> 50 µM", "> 50 µM"]

# per-item lookup of CC50; items listed below
1. O=C(Nc1ccc2c(c1)B(O)OC2)c1cccc(OCc2c(Cl)cccc2Cl)c1
2. Cc1[nH]c2ccccc2c1CN1CCC(c2c[nH]c3ncccc23)CC1

1: > 50 µM; 2: > 50 µM
